Origin of measurements: BindingDB's records for doi:10.1016/j.bmcl.2009.12.099

Test: Inhibition of c-MET in human A549 cells by wound healing assay
pIC50: −log10 of the molar value.
quantity: pIC50

In: Report pIC50, nothing else, for this compound: Cn1cnc(-c2cc3nccc(Oc4ccc(NC(CC(=O)Nc5ccc(F)cc5)C(F)(F)F)cc4)c3s2)c1 (stereo not drawn)
Out: 5.70

[A] COc1ccccc1NC(=O)CC(Nc1ccc(Oc2ccnc3cc(-c4cn(C)cn4)sc23)c(F)c1)C(F)(F)F (stereo not drawn)
[B] Cn1cnc(-c2cc3nccc(Oc4ccc(NC(CC(=O)Nc5ccc(F)cc5)C(F)(F)F)cc4F)c3s2)c1 (stereo not drawn)
In: Between A and B , whose measured pIC50 reads higher? Kindly give the label for the entry you pick.
Out: B

---

Assay: Inhibition of c-MET in human DU145 cells by scattering assay
quantity: IC50 (µM)

In: Report IC50, nothing else, for this compound: COc1ccccc1NC(=O)CC(Nc1ccc(Oc2ccnc3cc(-c4cn(C)cn4)sc23)c(F)c1)C(F)(F)F (stereo not drawn)
Out: 10

[P] Cn1cnc(-c2cc3nccc(Oc4ccc(NC(CC(=O)Nc5ccc(F)cc5)C(F)(F)F)cc4F)c3s2)c1 (stereo not drawn)
[Q] Cn1cnc(-c2cc3nccc(Oc4ccc(NC(CC(=O)Nc5ccc(F)cc5)C(F)(F)F)cc4)c3s2)c1 (stereo not drawn)
In: // returns P or Q , whichever has the lower IC50 Kindly give the label for the entry you pick.
Out: P
